inhibition overview
- system-name: Collagen alpha-1(I) chain (Homo sapiens, UniProt P02452)
- Sequence (P02452 whole entry): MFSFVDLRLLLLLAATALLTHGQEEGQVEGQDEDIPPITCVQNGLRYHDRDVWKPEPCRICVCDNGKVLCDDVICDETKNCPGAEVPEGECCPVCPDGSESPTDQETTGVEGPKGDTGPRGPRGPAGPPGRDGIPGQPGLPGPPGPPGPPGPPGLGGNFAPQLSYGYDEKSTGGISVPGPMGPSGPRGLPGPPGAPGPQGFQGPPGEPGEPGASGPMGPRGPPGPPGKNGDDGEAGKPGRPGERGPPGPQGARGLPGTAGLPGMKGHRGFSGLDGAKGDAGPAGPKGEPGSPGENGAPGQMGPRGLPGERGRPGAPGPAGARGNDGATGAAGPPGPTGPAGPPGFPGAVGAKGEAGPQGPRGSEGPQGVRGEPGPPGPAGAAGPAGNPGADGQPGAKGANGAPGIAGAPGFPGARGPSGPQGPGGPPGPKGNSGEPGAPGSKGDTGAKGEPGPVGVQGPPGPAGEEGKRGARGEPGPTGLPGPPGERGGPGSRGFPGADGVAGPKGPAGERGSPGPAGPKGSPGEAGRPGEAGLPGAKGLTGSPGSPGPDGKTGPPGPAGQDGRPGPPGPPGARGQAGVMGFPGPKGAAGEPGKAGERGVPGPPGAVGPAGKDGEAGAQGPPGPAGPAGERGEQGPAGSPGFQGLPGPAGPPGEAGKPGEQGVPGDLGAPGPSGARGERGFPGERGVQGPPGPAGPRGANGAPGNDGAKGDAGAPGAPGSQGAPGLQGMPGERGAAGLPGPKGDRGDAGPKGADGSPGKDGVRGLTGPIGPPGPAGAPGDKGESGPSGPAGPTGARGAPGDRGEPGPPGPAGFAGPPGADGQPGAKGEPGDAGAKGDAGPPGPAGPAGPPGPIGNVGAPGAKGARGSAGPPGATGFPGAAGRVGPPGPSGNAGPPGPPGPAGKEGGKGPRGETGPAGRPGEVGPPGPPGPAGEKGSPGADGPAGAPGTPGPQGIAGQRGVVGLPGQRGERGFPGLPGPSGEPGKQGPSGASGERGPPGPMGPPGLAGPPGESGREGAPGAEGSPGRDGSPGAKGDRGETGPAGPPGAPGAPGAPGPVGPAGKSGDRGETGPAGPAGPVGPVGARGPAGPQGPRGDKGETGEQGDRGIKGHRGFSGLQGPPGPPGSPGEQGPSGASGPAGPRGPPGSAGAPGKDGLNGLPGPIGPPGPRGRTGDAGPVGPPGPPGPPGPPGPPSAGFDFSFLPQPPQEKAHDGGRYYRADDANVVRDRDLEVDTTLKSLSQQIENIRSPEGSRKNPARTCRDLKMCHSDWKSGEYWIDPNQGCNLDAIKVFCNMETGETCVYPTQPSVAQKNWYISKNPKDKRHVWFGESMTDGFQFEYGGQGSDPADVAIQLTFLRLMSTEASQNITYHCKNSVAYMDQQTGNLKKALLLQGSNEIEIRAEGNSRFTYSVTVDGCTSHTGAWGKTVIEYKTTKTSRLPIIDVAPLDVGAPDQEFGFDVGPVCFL
- method-notes: Inhibition of COL1A1 (unknown origin) expressed in human LX2 cells at 80 uM measured for 24 hrs relative to control
- Type: cell-based

[
  {
    "structure": "CCCC[C@@H]1[C@H]2CCCN3CCC[C@@H](CN1CC(=O)Nc1c(C)cccc1C)[C@@H]23",
    "system-name": "Collagen alpha-1(I) chain (Homo sapiens, UniProt P02452)",
    "inhibition": "50.5%"
  },
  {
    "structure": "CCCC[C@@H]1[C@H]2CCCN3CCC[C@@H](CN1C(=O)Nc1cccc(Cl)c1)[C@@H]23",
    "system-name": "Collagen alpha-1(I) chain (Homo sapiens, UniProt P02452)",
    "inhibition": "91.3%"
  },
  {
    "structure": "COC(=O)CCC[C@@H]1[C@H]2CCCN3CCC[C@@H](CN1C(=O)Nc1ccc(C(F)(F)F)cc1)[C@@H]23",
    "system-name": "Collagen alpha-1(I) chain (Homo sapiens, UniProt P02452)",
    "inhibition": "59.5%"
  },
  {
    "structure": "CCCC[C@@H]1[C@H]2CCCN3CCC[C@@H](CN1C(=O)Nc1c(C(C)C)cccc1C(C)C)[C@@H]23",
    "system-name": "Collagen alpha-1(I) chain (Homo sapiens, UniProt P02452)",
    "inhibition": "99.6%"
  },
  {
    "structure": "CCCC[C@@H]1[C@H]2CCCN3CCC[C@@H](CN1C(=O)Nc1ccc([N+](=O)[O-])cc1)[C@@H]23",
    "system-name": "Collagen alpha-1(I) chain (Homo sapiens, UniProt P02452)",
    "inhibition": "67.9%"
  },
  {
    "structure": "COC(=O)CCC[C@@H]1[C@H]2CCCN3CCC[C@@H](CN1C(=O)Nc1cccc(Cl)c1)[C@@H]23",
    "system-name": "Collagen alpha-1(I) chain (Homo sapiens, UniProt P02452)",
    "inhibition": "60.6%"
  },
  {
    "structure": "CCCC[C@@H]1[C@H]2CCCN3CCC[C@@H](CN1C(=O)Nc1ccccc1C(F)(F)F)[C@@H]23",
    "system-name": "Collagen alpha-1(I) chain (Homo sapiens, UniProt P02452)",
    "inhibition": "99.8%"
  }
]
